# measurement target: iPHF (human, UniProt P10636)
# Sequence (P10636 2-758): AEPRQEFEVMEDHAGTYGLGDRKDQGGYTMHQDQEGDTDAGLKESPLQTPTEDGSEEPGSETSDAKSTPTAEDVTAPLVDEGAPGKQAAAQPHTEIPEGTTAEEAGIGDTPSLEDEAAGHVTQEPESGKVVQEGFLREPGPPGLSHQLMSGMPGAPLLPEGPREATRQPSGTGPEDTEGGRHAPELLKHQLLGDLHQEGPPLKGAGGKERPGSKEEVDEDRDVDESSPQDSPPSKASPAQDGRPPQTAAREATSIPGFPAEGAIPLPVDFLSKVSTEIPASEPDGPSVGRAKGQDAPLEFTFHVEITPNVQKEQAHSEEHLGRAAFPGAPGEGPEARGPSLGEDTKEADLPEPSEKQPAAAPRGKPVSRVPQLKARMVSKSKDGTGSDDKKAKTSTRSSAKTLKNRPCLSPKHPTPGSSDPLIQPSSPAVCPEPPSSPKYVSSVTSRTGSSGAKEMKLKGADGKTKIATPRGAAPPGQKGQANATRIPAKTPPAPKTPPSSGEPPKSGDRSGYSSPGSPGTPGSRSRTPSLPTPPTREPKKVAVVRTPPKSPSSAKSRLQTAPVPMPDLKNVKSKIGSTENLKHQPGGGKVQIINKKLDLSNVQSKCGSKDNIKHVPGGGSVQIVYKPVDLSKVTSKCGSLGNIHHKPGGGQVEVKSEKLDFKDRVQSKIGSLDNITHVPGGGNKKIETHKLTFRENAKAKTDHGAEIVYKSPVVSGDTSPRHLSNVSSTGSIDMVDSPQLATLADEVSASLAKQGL
# protocol: SPR
Here, each record is paired with measured pKd data.
For clarity, pKd is expressed as the negative log10 of concentration in mol/L.

binder	result value
Ab4 (antibody, V domains shown, immunopurified paired helical filament tau, hyperphosphorylated) VH: QVQLVQSGAEVKKPGASVKVSCKASGFTFTRYWMHWVKERPGQGLEWMGNINPNNGGTDFNEKFKNRVTMTVHKSTSTVFIQLSSLRSEDTAVYYCARGTGTGAMDYWGQGTSVTVSS VL: DIVMTQSPLSLSVTPGQPASISCRSSQSLVHNNGITYLYWYLQKPGQSPQLLIYRVSNRFSGVPDRFSGSGSGTDFTLKISRVEAEDVGVYYCFQGTHVPRTFGQGTKVEIK	10.45
Ab10 (antibody, V domains shown, immunopurified paired helical filament tau, hyperphosphorylated) VH: EVQLVQSGAEVKKPGSSVKVSCKASGFTFTRYWMHWVKERPGHGLEWIGNINPNNGGTDFNEKFKNRVTMTVHKSITTAYMELSRLTSDDSAVYYCARGTGTGAMDYWGQGTLVSVSS VL: DIVMTQTPLSSPVTLGQPASISCRSSQSLVHNNGITYLYWYQQRPGQPPRLLIYRVSNRFSGVPDRFSGSGAGTDFTLKINRVEAEDVGVYFCFQGTHVPRTFGQGTKLEIK	10.52
Ab11 (antibody, V domains shown, immunopurified paired helical filament tau, hyperphosphorylated) VH: QVQLVQSGAEVKKPGASVKVSCKASGFTFTRYWMHWVKERPGQGLEWMGNINPNNGGTDFNEKFKNRVTMTVHKSTSTVFIQLSSLRSEDTAVYYCARGTGTGAMDYWGQGTSVTVSS VL: DVVMTQSPLSLPVTLGQPASISCRSSQSLVHNNGITYLYWYQQRPGQSPRLLIYRVSNRFSGVPDRFSGSGSGTDFTLKISRVEAEDVGVYYCFQGTHVPRTFGQGTKLEIK	10.60

Assign pKd to the following record: V0022 control (antibody, V domains shown, immunopurified paired helical filament tau, hyperphosphorylated) VH: QVQLQQPGTELVKPGSSVNLSCKASGFTFTRYWMHWVKERPGHGLEWIGNINPNNGGTDFNEKFKNKATLTVHKSSTTVFIQLSSLTSEDSAVYYCARGTGTGAMDYWGQGTSVTVSS VL: DVVMTQTPLSLPVSLGDQASISCRSSQSLVHNNGITYLYWYLQKPGQSPKLLIYRVSNRFSGVPDRFGGSGSGTDFTLKISRVEAEDLGVYFCFQGTHVPRTFGGGTKLEIK
10.78
